- Tested on: SK-LU-1 (Lung Adenocarcinoma)
- Method notes: combination Emax (second highest fraction inhibited in the dose matrix, 72 h); higher = more inhibition; extreme values may be limits of the assay
Documented combination Emax across a set of molecules
Lab note: write the figure by itself, no unit.

>  <Molecule>
C=CCn1c(=O)c2cnc(Nc3ccc(N4CCN(C)CC4)cc3)nc2n1-c1cccc(C(C)(C)O)n1 [AZD1775] + Nc1ccn([C@@H]2O[C@H](CO)[C@@H](O)C2(F)F)c(=O)n1 [Gemcitabine] (first compound max 1 µM, partner max 0.3 µM)

>  <combination Emax>
0.457

$$$$
>  <Molecule>
N#Cc1cnc(Nc2cc(NC[C@H]3CNCCO3)c(C(F)(F)F)cn2)cn1 [SRA737] + C=CCn1c(=O)c2cnc(Nc3ccc(N4CCN(C)CC4)cc3)nc2n1-c1cccc(C(C)(C)O)n1 [AZD1775] (first compound max 10 µM, partner max 1 µM)

>  <combination Emax>
0.442

$$$$
>  <Molecule>
Cc1c2c(nn1C)CSCc1cc(n(C)n1)CSc1cc(c3ccccc3c1)OCCCc1c(C(=O)O)n(C)c3c-2c(Cl)ccc13 [AZD5991] + C=CCn1c(=O)c2cnc(Nc3ccc(N4CCN(C)CC4)cc3)nc2n1-c1cccc(C(C)(C)O)n1 [AZD1775] (first compound max 1 µM, partner max 1 µM)

>  <combination Emax>
0.575

$$$$
>  <Molecule>
C=CCn1c(=O)c2cnc(Nc3ccc(N4CCN(C)CC4)cc3)nc2n1-c1cccc(C(C)(C)O)n1 [AZD1775] + O=C(c1cc(Cc2n[nH]c(=O)c3ccccc23)ccc1F)N1CCN(C(=O)C2CC2)CC1 [Olaparib] (first compound max 1 µM, partner max 10 µM)

>  <combination Emax>
0.436

$$$$
>  <Molecule>
CC(=O)c1c(C)c2cnc(Nc3ccc(N4CCNCC4)cn3)nc2n(C2CCCC2)c1=O [Palbociclib] + Cn1cnc2c(F)c(Nc3ccc(Br)cc3Cl)c(C(=O)NOCCO)cc21 [Selumetinib] (first compound max 10 µM, 7x7, partner max 10 µM)

>  <combination Emax>
0.362

$$$$
>  <Molecule>
N#Cc1cnc(Nc2cc(NC[C@H]3CNCCO3)c(C(F)(F)F)cn2)cn1 [SRA737] + CCc1c2c(nc3ccc(O)cc13)-c1cc3c(c(=O)n1C2)COC(=O)[C@]3(O)CC [SN-38] (first compound max 10 µM, 7x7, partner max 0.3 µM)

>  <combination Emax>
0.639

$$$$
>  <Molecule>
Cn1cnc2c(F)c(Nc3ccc(Br)cc3Cl)c(C(=O)NOCCO)cc21 [Selumetinib] + CC(C)n1c(=O)n(C)c2cnc3cc(F)c(-c4ccc(OCCCN5CCCCC5)nc4)cc3c21 [AZD1390] (first compound max 10 µM, 7x7, partner max 0.3 µM)

>  <combination Emax>
0.264

$$$$

Next:
molecule C[C@@H](Nc1cc(F)cc(F)c1)c1cc(C(=O)N(C)C)cc2c(=O)cc(N3CCOCC3)oc12 [AZD8186] + C1CN(CCC1(C(=O)N[C@@H](CCO)C2=CC=C(C=C2)Cl)N)C3=NC=NC4=C3C=CN4 [AZD5363] (first compound max 10 µM, 7x7, partner max 10 µM) , combination Emax observed: 0.303

The values you see were collected from the supplement of paper PMC11061612.
